# SYSTEM_NAME: Human CD22 extracellular segment conjugated His label (human, UniProt P20273 20-687)
# TEST_NAME: ELISA
Kindly state EC50 for each of the entries shown.
Could you give me the number in nM? Just the number is fine.

Q) Entry CD22 antibody FC2-070 (antibody, V domains shown) VH: QVQLQQPGAELVKPGTSVKLSCKASGYNFTSYWINWVKLRPGQGLEWIGDIYPGSGNTNYNEKFKSKATLTVDTSSTTAYMQLSSLASEDSALYYCARRGYLDYWGQGTTLTVSS VL: DIQMTQSPASLSASVGETVTITCRASGNIHNYLAWYQQKQGKSPQLLVYNAKTLADGVPSRFSGSGSGTQYSLTINSLQPEDFGSYYCQHFWSTPLTFGAGTKLELKR has what EC50?
A) 0.154

Q) Also need CD22 antibody FC2-203 (antibody, V domains shown) VH: QVQLQQPGAELVRPGASVKLSCKASGYTFSSYWINWVKQRPGQGLEWIGNIYPSDSYTNYNQKFKDKATLTVDKSSSTAYMQLSSPTSEDSAVYYCTREGHYYGSFGAMDYWGQGTSVTVSS VL: DVQITQSPSYLAASPGETITINCRASKTISKYLAWYQEKPGKTNKLLIYSGSTLQSGIPSRFSGSGSGTDFTLTISSLEPEDFAMYYCQQHNEYPWTFGGGTKLEIKR , thanks.
A) 0.457

Q) Also need CD22 antibody FC2-201 (antibody, V domains shown) VH: KVQLQQSGAGLVKPGASVKLSCKASGYTFTDSILHWLMQRSGQGLEWIGWFYPGSGSIKYNEKFKDKATLTADKSSSTVYMELSRLTSEDSAFYFCARHEDGYDGFAYWGQGTLVTVSA VL: ENVLTQSPAIMSASLGEKVTMSCRASSSVNYIFWYQQKSDASPKLWIYYTSNLAPGVPARFSGSGSGNSYSLTISSMEGEDAATYYCQQFTSSPFTFGSGTKLEIKR , thanks.
A) 0.096

Q) Also need CD22 antibody FC2-153 (antibody, V domains shown) VH: QVQLQQSGAELMKPGASVKISCKATGYTFSSYWIEWVKQRPGHGLEWIGEILPGSGSTNYNEKFKGKATFTADTSSNTAYMQLSSLTSEDSAVYYCARWGQLGLFYAMDYWGQGTSVTVSS VL: DIQMTQSPASLSASVGETVTITCRASENIYSYLAWYQQKQGKSPQLLVYNAKTLAEGVPSRFSGSGSGTQFSLKINSLQPEDFGSYYCQHHYGSPLTFGAGTKLELKR , thanks.
A) 0.145
